Entry source: patent US11739064B2

Consider the following molecules; for each one, report its GI50.
System: L3.6pl
PROTOCOL_DETAILS: In vitro growth inhibition (GI), MTS cell proliferation assay (Table 5), L3.6pl
Assay type: cell-based
CONDITION_CONTEXT: Homo sapiens, 72 hours post-treatment
Write the answer as a number in µM, unit excluded.

Form field: reported GI50 of Nc1cccc(-c2cc(C(=O)NCCc3cc(C(=O)NO)no3)no2)c1 [Compound 9]
3.3

Any idea what GI50 was measured for CCOC(=O)Nc1ccc(-c2cc(C(=O)NCCc3cc(C(=O)NO)no3)no2)cc1 [Compound 8] ?
47

----------
TEST_SYSTEM: HDAC4 (Homo sapiens, UniProt P56524)
Sequence (P56524 whole entry, canonical isoform): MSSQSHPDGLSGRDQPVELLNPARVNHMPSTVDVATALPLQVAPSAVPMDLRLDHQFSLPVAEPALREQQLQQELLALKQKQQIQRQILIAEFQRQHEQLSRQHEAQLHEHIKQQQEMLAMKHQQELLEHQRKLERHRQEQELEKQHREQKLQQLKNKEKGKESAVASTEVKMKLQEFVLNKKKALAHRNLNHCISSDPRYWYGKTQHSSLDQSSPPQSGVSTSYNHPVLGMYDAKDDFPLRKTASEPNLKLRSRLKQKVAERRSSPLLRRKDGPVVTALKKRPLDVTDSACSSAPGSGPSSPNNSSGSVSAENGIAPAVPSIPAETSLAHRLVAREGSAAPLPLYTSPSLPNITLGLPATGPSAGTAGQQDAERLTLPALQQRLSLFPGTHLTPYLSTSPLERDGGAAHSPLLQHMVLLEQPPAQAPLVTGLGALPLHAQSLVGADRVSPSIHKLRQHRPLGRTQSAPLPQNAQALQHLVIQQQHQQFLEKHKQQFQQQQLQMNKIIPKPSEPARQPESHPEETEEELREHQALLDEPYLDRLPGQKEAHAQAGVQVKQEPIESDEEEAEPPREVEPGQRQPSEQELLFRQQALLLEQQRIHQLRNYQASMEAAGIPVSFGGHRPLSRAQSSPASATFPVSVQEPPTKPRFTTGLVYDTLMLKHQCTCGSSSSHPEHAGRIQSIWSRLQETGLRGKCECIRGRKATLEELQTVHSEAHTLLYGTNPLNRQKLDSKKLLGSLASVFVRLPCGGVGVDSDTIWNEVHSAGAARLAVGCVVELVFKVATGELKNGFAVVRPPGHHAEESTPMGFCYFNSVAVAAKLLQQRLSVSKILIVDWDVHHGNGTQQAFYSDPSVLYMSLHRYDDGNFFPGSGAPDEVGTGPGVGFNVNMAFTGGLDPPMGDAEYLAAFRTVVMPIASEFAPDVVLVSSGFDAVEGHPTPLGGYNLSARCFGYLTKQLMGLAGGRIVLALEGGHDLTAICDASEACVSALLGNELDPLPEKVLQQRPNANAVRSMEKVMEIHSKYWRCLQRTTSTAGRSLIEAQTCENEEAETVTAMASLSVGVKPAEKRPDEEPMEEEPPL
PROTOCOL_DETAILS: HDAC isoform inhibition, HDAC4
OUTCOME_MEASURE: IC50 (µM)
Your answer is read as µM, so omit the unit and give the number.

# input compound: CC(C)(C)OC(=O)Nc1ccc(-c2cc(C(=O)NCCc3cc(C(=O)NO)no3)no2)cc1 [Compound 6] ; wanted: its IC50
130
